Values compiled from paper PMC11767451.

- assay-text: Autosampler stability of extracted mouse plasma samples at 4 °C
- Type: physicochemical
- settings: 24 hours autosampler 4 °C
Recorded %-ACC (% accuracy vs nominal) by entry
reported-endpoint: %-ACC (% accuracy vs nominal) (%)

- compound: "O=c1ccn([C@@H]2O[C@H](CO)[C@@H](O)C2(F)F)c(=O)[nH]1"
  reported-endpoint: "%-ACC (% accuracy vs nominal)"
  observed-measurement: 103.9
- compound: "CCCCCN(C)CCC(O)(P(=O)(O)O)P(=O)(O)OP(=O)(O)OC[C@H]1O[C@@H](n2ccc(N)nc2=O)C(F)(F)[C@@H]1O (stereo partly drawn)"
  reported-endpoint: "%-ACC (% accuracy vs nominal)"
  observed-measurement: 96.8
- compound: "O=c1ccn([C@@H]2O[C@H](COP(=O)(O)O)[C@@H](O)C2(F)F)c(=O)[nH]1"
  reported-endpoint: "%-ACC (% accuracy vs nominal)"
  observed-measurement: 102.4
- compound: "Nc1ccn([C@@H]2O[C@H](CO)[C@@H](O)C2(F)F)c(=O)n1"
  reported-endpoint: "%-ACC (% accuracy vs nominal)"
  observed-measurement: 102.0
- compound: "Nc1ccn([C@@H]2O[C@H](COP(=O)(O)O)[C@@H](O)C2(F)F)c(=O)n1 [GEMMP, gemcitabine-5′-phosphate]"
  reported-endpoint: "%-ACC (% accuracy vs nominal)"
  observed-measurement: 96.9
- compound: "CCCCCN(C)CCC(O)(P(=O)(O)O)P(=O)(O)O [IB, ibandronate]"
  reported-endpoint: "%-ACC (% accuracy vs nominal)"
  observed-measurement: 97.6

* * *

- assay-text: Proof-of-concept mouse PK study, plasma levels of GEM-IB and metabolites by HPLC-MS/MS
- Type: in vivo, mice
- settings: mouse, plasma, ip, 5 mg/kg, after i.p. injection of GEM-IB 5 mg/kg, read-out: half-life
Entries and their half-life values follow.
reported-endpoint: half-life (min)

- molecule: "CCCCCN(C)CCC(O)(P(=O)(O)O)P(=O)(O)OP(=O)(O)OC[C@H]1O[C@@H](n2ccc(N)nc2=O)C(F)(F)[C@@H]1O (some centres unmarked) [GEM-IB]"
  observed-measurement: 8
- molecule: "CCCCCN(C)CCC(O)(P(=O)(O)O)P(=O)(O)O [IB, ibandronate]"
  observed-measurement: 16

* * *

- assay-text: Stability in mouse plasma (accelerated, freeze-thaw, frozen PK samples)
- Format: in vitro ADME
- settings: mouse plasma PK samples re-extracted after 1.5 years at <−70 °C
reported-endpoint: %-ACC, frozen PK sample stability

- compound: "Nc1ccn([C@@H]2O[C@H](CO)[C@@H](O)C2(F)F)c(=O)n1"
  reported-endpoint: "%-ACC, frozen PK sample stability"
  observed-measurement: "94.2% ± 11.8"
- compound: "Nc1ccn([C@@H]2O[C@H](COP(=O)(O)O)[C@@H](O)C2(F)F)c(=O)n1 [GEMMP, gemcitabine-5′-phosphate]"
  reported-endpoint: "%-ACC, frozen PK sample stability"
  observed-measurement: "failed the criteria"
- compound: "O=c1ccn([C@@H]2O[C@H](COP(=O)(O)O)[C@@H](O)C2(F)F)c(=O)[nH]1"
  reported-endpoint: "%-ACC, frozen PK sample stability"
  observed-measurement: "failed the criteria"
- compound: "O=c1ccn([C@@H]2O[C@H](CO)[C@@H](O)C2(F)F)c(=O)[nH]1"
  reported-endpoint: "%-ACC, frozen PK sample stability"
  observed-measurement: "failed the criteria"

* * *

Each entry below carries its reported Rate Constant.
- assay-text: Proof-of-concept dog PK study, plasma levels of GEM-IB and metabolites by HPLC-MS/MS
- Type: in vivo, beagle dogs
- settings: after GEM-IB 5 mg/kg 30 min i.v. infusion

- molecule: "O=c1ccn([C@@H]2O[C@H](COP(=O)(O)O)[C@@H](O)C2(F)F)c(=O)[nH]1 [dFdUMP]"
  Rate Constant: "7.0 h⁻¹"
- molecule: "CCCCCN(C)CCC(O)(P(=O)(O)O)P(=O)(O)OP(=O)(O)OC[C@H]1O[C@@H](n2ccc(N)nc2=O)C(F)(F)[C@@H]1O (some centres unmarked) [GEM-IB]"
  Rate Constant: "50.6 h⁻¹"
- molecule: "O=c1ccn([C@@H]2O[C@H](CO)[C@@H](O)C2(F)F)c(=O)[nH]1 [dFdU, 2′,2′-difluoro-2′-deoxyuridine]"
  Rate Constant: "0.1 h⁻¹"
- molecule: "Nc1ccn([C@@H]2O[C@H](CO)[C@@H](O)C2(F)F)c(=O)n1 [GEM, gemcitabine]"
  Rate Constant: "0.5 h⁻¹"
- molecule: "CCCCCN(C)CCC(O)(P(=O)(O)O)P(=O)(O)O [IB, ibandronate]"
  Rate Constant: "0.7 h⁻¹"

* * *

Each entry below carries its reported half-life.
- assay-text: Proof-of-concept mouse PK study, plasma levels of GEM-IB and metabolites by HPLC-MS/MS
- Type: in vivo, mice
- settings: mouse, plasma, ip, 5 mg/kg, after GEM-IB 5 mg/kg i.p., read-out: T1/2 (converted)

- molecule: "CCCCCN(C)CCC(O)(P(=O)(O)O)P(=O)(O)OP(=O)(O)OC[C@H]1O[C@@H](n2ccc(N)nc2=O)C(F)(F)[C@@H]1O (some centres unmarked) [GEM-IB]"
  unit-text: "min"
  half-life: 8.28
- molecule: "CCCCCN(C)CCC(O)(P(=O)(O)O)P(=O)(O)O [IB, ibandronate]"
  unit-text: "min"
  half-life: 16.1
- molecule: "O=c1ccn([C@@H]2O[C@H](COP(=O)(O)O)[C@@H](O)C2(F)F)c(=O)[nH]1 [dFdUMP]"
  unit-text: "min"
  half-life: 3.78
- molecule: "O=c1ccn([C@@H]2O[C@H](CO)[C@@H](O)C2(F)F)c(=O)[nH]1 [dFdU, 2′,2′-difluoro-2′-deoxyuridine]"
  unit-text: "min"
  half-life: 108
- molecule: "Nc1ccn([C@@H]2O[C@H](COP(=O)(O)O)[C@@H](O)C2(F)F)c(=O)n1 [GEMMP, gemcitabine-5′-phosphate]"
  unit-text: "min"
  half-life: 10.3

* * *

- assay-text: Proof-of-concept dog PK study, plasma levels of GEM-IB and metabolites by HPLC-MS/MS
- Assay type: in vivo, beagle dogs
- settings: beagle, iv, after GEM-IB 5 mg/kg 30 min i.v. infusion, over the observation period
Label fulfilled when AUC is strictly below 80 ng·h/mL; at or above that, label not fulfilled.

- molecule: "Nc1ccn([C@@H]2O[C@H](COP(=O)(O)O)[C@@H](O)C2(F)F)c(=O)n1 [GEMMP, gemcitabine-5′-phosphate]"
  class: "not fulfilled"
- molecule: "O=c1ccn([C@@H]2O[C@H](COP(=O)(O)O)[C@@H](O)C2(F)F)c(=O)[nH]1 [dFdUMP]"
  class: "fulfilled"
- molecule: "Nc1ccn([C@@H]2O[C@H](CO)[C@@H](O)C2(F)F)c(=O)n1 [GEM, gemcitabine]"
  class: "not fulfilled"
- molecule: "CCCCCN(C)CCC(O)(P(=O)(O)O)P(=O)(O)O [IB, ibandronate]"
  class: "not fulfilled"
- molecule: "CCCCCN(C)CCC(O)(P(=O)(O)O)P(=O)(O)OP(=O)(O)OC[C@H]1O[C@@H](n2ccc(N)nc2=O)C(F)(F)[C@@H]1O (stereo partly drawn) [GEM-IB]"
  class: "not fulfilled"
- molecule: "O=c1ccn([C@@H]2O[C@H](CO)[C@@H](O)C2(F)F)c(=O)[nH]1 [dFdU, 2′,2′-difluoro-2′-deoxyuridine]"
  class: "not fulfilled"

* * *

List of AUC values.
- assay-text: Proof-of-concept mouse PK study, plasma levels of GEM-IB and metabolites by HPLC-MS/MS
- Type: in vivo, mice
- settings: mouse, plasma, ip, 5 mg/kg, after GEM-IB 5 mg/kg i.p., over the observation period, read-out: AUC
- Experimental: Assay A (GEM-IB and IB): The extraction of calibration standards, quality control samples, and PK study samples was identical. […] Assay A (GEM-IB and IB): Quantification of the analytes was carried out using high-performance liquid chromatography–tandem mass spectrometry (HPLC-MS/MS). […] Data were acquired in negative multiple reaction monitoring (MRM) mode and all compounds were detected as [M–H ]^−. […]

- molecule: "Nc1ccn([C@@H]2O[C@H](COP(=O)(O)O)[C@@H](O)C2(F)F)c(=O)n1 [GEMMP, gemcitabine-5′-phosphate]"
  unit-text: "µg·h/mL"
  AUC: 0.405
- molecule: "CCCCCN(C)CCC(O)(P(=O)(O)O)P(=O)(O)O [IB, ibandronate]"
  unit-text: "µg·h/mL"
  AUC: 10.7
- molecule: "CCCCCN(C)CCC(O)(P(=O)(O)O)P(=O)(O)OP(=O)(O)OC[C@H]1O[C@@H](n2ccc(N)nc2=O)C(F)(F)[C@@H]1O (stereo partly drawn)"
  unit-text: "µg·h/mL"
  AUC: 1.28

* * *

- assay-text: Stability in mouse plasma (accelerated, freeze-thaw, frozen PK samples)
- Assay type: in vitro ADME
- settings: mouse plasma, 24 hours 4°C

- compound: "CCCCCN(C)CCC(O)(P(=O)(O)O)P(=O)(O)O [IB, ibandronate]"
  unit-text: "%"
  %-ACC (percent mean accuracy vs nominal): 99.7
- compound: "O=c1ccn([C@@H]2O[C@H](CO)[C@@H](O)C2(F)F)c(=O)[nH]1"
  unit-text: "%"
  %-ACC (percent mean accuracy vs nominal): 87.0
- compound: "Nc1ccn([C@@H]2O[C@H](COP(=O)(O)O)[C@@H](O)C2(F)F)c(=O)n1 [GEMMP, gemcitabine-5′-phosphate]"
  unit-text: "%"
  %-ACC (percent mean accuracy vs nominal): 91.4
